System: Pneumocystis carinii
Experiment notes: Antifungal activity against Pneumocystis carinii after 4 days by RAL-555 staining based microscopy
Format: functional, organism-based
Experimental parameters: 96 h
Measure name: IC50 (nM)
Value expressed in nM; do not type the unit.

The compound listed as N=C(N)c1ccc(OCCCCCOc2ccc(C(=N)N)cc2)cc1 has a reported IC50 of 84
